The measurements presented in this section are drawn from patent US20170145113A1.

Molecular target: T1, murine HtrA4 protease domain (murine, UniProt A2RT60 160-371, limits assumed)
T1 construct: domain: PD (protease domain); also called muHtrA4-PD; murine HtrA4-PD
T1 sequence (looked up): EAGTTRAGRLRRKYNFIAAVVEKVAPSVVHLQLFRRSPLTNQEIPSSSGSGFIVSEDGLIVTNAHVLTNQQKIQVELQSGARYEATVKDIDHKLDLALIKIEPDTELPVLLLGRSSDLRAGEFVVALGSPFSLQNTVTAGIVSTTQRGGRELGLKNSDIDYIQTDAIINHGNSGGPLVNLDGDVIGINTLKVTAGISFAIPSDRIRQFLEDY
Assay: ELISA, hybridoma clone

Binder: anti-HtrA1 hybridoma antibody clone 3A5 (antibody, V domains shown) VH: DVHLVESGGGLVRPGGSRKLSCEASGFTFSSFGMHWVRQAPEKGLEWVAFITSDSSTIYYADTVKGRFTISRDNPKNTLFLQMTSLRSEDTAMYYCTRSGDDYLDYWGQGTTLTVSS VL: DIVLTQSPASLAVSLGQRATISCRASQSVSTSSSSYMHWYQQKPGQPPKVFIKYASNLESGVPARFSGSGSGTDFTLSIHPVEEEDTATYYCQHSWEIPFTFGGGTKLEIK
binding result: no binding
//
Binder: anti-HtrA1 hybridoma antibody clone 15H6 (antibody, V domains shown, Murine mIgG2a, from hybridoma or recombinant from 293 cells; also called m15H6) VH: QVQLQQSGAELVRPGASVTLSCKASGYTFTDSEMHWVKQTPVHGLEWIGGVDPETDGAAYNQKFKGKATLTADKSSSTAYMELRSLTSEDSAVYYCTRGYDYDYALDYWGQGTSVTVSS VL: QIVLSQSPAILSASPGEKVTMTCRASSSVNFIHWYQQKPGSSPKPWISATSNLASGVPPRFSGSGSGTSYSLTISRVEAEDAATYYCQQWSSNPWTFGGGTKLEIK
binding result: no binding
//
Binder: anti-HtrA1 hybridoma antibody clone 19B12 (antibody, V domains shown, Murine mIgG2a, from hybridoma or recombinant from 293 cells; also called m19B12) VH: EVKLVESGGGLVEPGGSLKLACVASGFTFSSYIMSWVRQTPEKRLEWVAYISNGGGTTYYSDTIKGRFTISRDNAKNTLYLQMSTLKSEDTAIYFCARQNFRSDGSSMDYWGQGTAVTVSS VL: NIVVTQSPASLAVSLGQRATISCRASESVDSYGKSFMHWYQQKPGQPPKLLIYLASKLESGVPARFSGSGSRTDFTLTIDPVEADDAATYYCQQNNEDPYTFGGGTKLEIK
binding result: no binding
